System: Insulin-like growth factor 1 receptor (Homo sapiens) | Read-out: IC50 | Origin: multiple publications
Quick reminder: number only, in nM, skip the unit.

# Molecule, Unit Label, IC50
rows = [
    ("COc1ccc(NC(=O)/C=C/CN2CCCCC2)cc1Nc1ncc(Cl)c(Nc2ccc3ccccc3c2)n1", "nM", 35.4),
    ("CCOc1ncc(-c2ccc(Nc3nc(Nc4cc(CC)c(N5CCC(N6CCN(C)CC6)CC5)cc4OC)ncc3Br)c(P(C)(C)=O)c2)cn1", "nM", 114),
    ("CCCCOc1cccc(-c2cn(C3CC(CN)C3)c3ncnc(N)c23)c1 (stereo not shown)", "nM", 1200),
    ("C=CC(=O)Nc1cc(Nc2ncc(Cl)c(Nc3ccc4ccccc4c3)n2)c(OC)cc1N1CCC(N(C)C)CC1", "nM", 13.7),
    ("CCc1cc(Nc2ncc(Br)c(Nc3ccc(-n4cc(F)cn4)cc3P(C)(C)=O)n2)c(OC)cc1N1CCC(N2CCN(C)CC2)CC1", "nM", 124),
    ("COc1ccc(NC(=O)/C=C/CN(C)C)cc1Nc1nccc(Nc2ccc3ccccc3c2)n1", "nM", 98.5),
]

Please provide the recorded IC50 for CCc1cc(Nc2ncc(Br)c(Nc3ccc(-c4ccccc4)cc3P(C)(C)=O)n2)c(OC)cc1N1CCC(N2CCOCC2)CC1 , tested on Insulin-like growth factor 1 receptor (Homo sapiens). 217

// fetch Insulin-like growth factor 1 receptor (Homo sapiens) IC50 for CCc1cc(Nc2ncc(Br)c(Nc3ccc(-c4cccc5cc[nH]c45)cc3P(C)(C)=O)n2)c(OC)cc1N1CCC(N2CCN(C)CC2)CC1 1910

// lookup IC50 | system=Insulin-like growth factor 1 receptor (Homo sapiens) | key= Cc1cccc(C2CC(N3CCCC3=O)c3cccc4c3N2CC4)c1 (stereo not shown) 3600

// fetch Insulin-like growth factor 1 receptor (Homo sapiens) IC50 for CCc1cc(Nc2ncc(Br)c(Nc3ccc(-c4cnn(C)c4)c(OC)c3P(C)(C)=O)n2)c(OC)cc1N1CCC(N2CCN(C)CC2)CC1 14.7

Query the reported IC50 for Insulin-like growth factor 1 receptor (Homo sapiens); item: O=C1CCCN1C1CC(c2ccc(Cl)cc2Cl)N2CCc3cccc1c32 (stereo not shown) 4000

Notebook entry, Insulin-like growth factor 1 receptor (Homo sapiens) assay: IC50 of CCc1cc(Nc2ncc(Br)c(Nc3ccc4nc(-c5cnn(C)c5)ccc4c3P(C)(C)=O)n2)c(OC)cc1N1CCC(N2CCN(C)CC2)CC1 = ? 246

Query for Insulin-like growth factor 1 receptor (Homo sapiens): what IC50 does the record show for O=C1CCCN1C1CC(c2ccccc2Cl)N2CCc3cccc1c32 (stereo not shown) ? 3100

Notebook: pull reported IC50 for Insulin-like growth factor 1 receptor (Homo sapiens), entry CCc1cc(Nc2ncc(Br)c(Nc3ccc(-c4cnn(C)c4)cc3P(C)(C)=O)n2)c(OC)cc1N1CCC(N2CCN(C)CC2)CC1 53.7

Notebook: pull reported IC50 for Insulin-like growth factor 1 receptor (Homo sapiens), entry COc1cccc(C2CC(N3CCCC3=O)c3cccc4c3N2CC4)c1 (stereo not shown) 2000

* * *

Note to self: these molecules have IC50 reported for Insulin-like growth factor 1 receptor (Homo sapiens) in various publications.

Solved cases below.
# Molecule, Value Observed
rows = [
    ("COc1cc(-c2ccccc2)nc2c(F)c(-c3nn([C@H]4C[C@](C)(O)C4)c(N)c3C(N)=O)ccc12", "≤ 100 nM"),
    ("CC(C)S(=O)(=O)Nc1ccc(F)c(C(=O)c2c[nH]c3ncc(-c4cccnc4)cc23)c1F", "≤ 10000 nM"),
]

Fill in the recorded IC50 for this molecule, with Insulin-like growth factor 1 receptor (Homo sapiens) as test system: COc1cc(F)ccc1OC[C@@H](O)CNc1ccnc(O)c1-c1nc2cc3c(cc2[nH]1)C(=O)N(C1CCN(C)CC1)C3=O 500 to 5000 nM

// map COc1cc(Nc2ncc(Br)c(Nc3ccc4nc(C5CC5)ccc4c3P(C)(C)=O)n2)c(C#N)cc1N1CCC(N2CCN(C)CC2)CC1 to recorded IC50 (system: Insulin-like growth factor 1 receptor (Homo sapiens)) > 3000 nM

Short answer please: IC50, Insulin-like growth factor 1 receptor (Homo sapiens), entry C[C@]1(O)C[C@@H](n2nc(-c3ccc4ccc(-c5ccccc5)nc4c3)c(C(N)=O)c2N)C1 ≤ 100 nM

Which measured IC50 belongs to COc1cc(Nc2ncc(Br)c(Nc3ccc4nc(C5CC5)ccc4c3P(C)(C)=O)n2)c(C)cc1N1CCC(N2CCN(C)CC2)CC1 , tested on Insulin-like growth factor 1 receptor (Homo sapiens)? 27 nM

// map CCc1cc(Nc2ncc(Br)c(Nc3ccc(-c4cnn(C)n4)cc3P(C)(C)=O)n2)c(OC)cc1N1CCC(N2CCOCC2)CC1 to recorded IC50 (system: Insulin-like growth factor 1 receptor (Homo sapiens)) 134 nM

Form field: IC50 recorded for O=C1CCCN1C1CC(c2cc(F)cc(F)c2)N2CCc3cccc1c32 (centres unmarked) with Insulin-like growth factor 1 receptor (Homo sapiens) (enter value) 3300 nM

Can you look up IC50 on Insulin-like growth factor 1 receptor (Homo sapiens) for CS(=O)(=O)Nc1cccc(-c2cnc3[nH]cc(C(=O)c4c(F)ccc(NS(C)(=O)=O)c4F)c3c2)c1 ? ≤ 10000 nM

Notebook entry, Insulin-like growth factor 1 receptor (Homo sapiens) assay: IC50 of CN(C)CCc1ncccc1OC[C@H](O)CNc1ccnc(O)c1-c1nc2cc3c(cc2[nH]1)C(=O)N(C1CCN(C)CC1)C3=O = ? 500 to 5000 nM

# get_value(readout= IC50, system= Insulin-like growth factor 1 receptor (Homo sapiens)) for CCc1cc(Nc2ncc(Br)c(Nc3ccc4nc(C#N)ccc4c3P(C)(C)=O)n2)c(OC)cc1N1CCC(N2CCN(C)CC2)CC1 16.8 nM

Give recorded IC50 with Insulin-like growth factor 1 receptor (Homo sapiens) for the following molecule: NCC1CC(n2cc(-c3ccccc3)c3c(N)ncnc32)C1 (centres unmarked) 7400 nM

Recall the recorded IC50 for Cc1c(OC[C@H](O)CNc2cc[nH]c(=O)c2-c2nc3cc4c(cc3[nH]2)CN(C2CCN(C)CC2)C4=O)ccc2c1OCO2 with Insulin-like growth factor 1 receptor (Homo sapiens) and state it. < 500 nM

For the record CC(NC(=O)c1ccc(C2CC2)c(-c2ccc3nc(Nc4cnn(C5CC5)c4)ncc3c2)c1)c1cccc(C(F)(F)F)c1 (centres unmarked) , what value of IC50 is listed for Insulin-like growth factor 1 receptor (Homo sapiens)? > 1000 nM

* * *

Across several studies, compounds have been characterized by their IC50 on Insulin-like growth factor 1 receptor (Homo sapiens); a selection follows.

Recorded IC50, per entry:
# Compound, Target Of Assay, IC50
records = [
    ("NC(=O)c1c(-c2ccc3ccc(-c4ccccc4)nc3c2)nn(C2CC(F)(F)C2)c1N", "Insulin-like growth factor 1 receptor (Homo sapiens)", "100 to 1000 nM"),
    ("O=C1CCCN1C1CC(c2cccc(-c3ccc(F)cc3)c2)N2CCc3cccc1c32 (centres unmarked)", "Insulin-like growth factor 1 receptor (Homo sapiens)", "5500 nM"),
    ("CCCc1ccc(C2CC(N3CCCC3=O)c3cccc4c3N2CC4)cc1 (centres unmarked)", "Insulin-like growth factor 1 receptor (Homo sapiens)", "3500 nM"),
    ("CCc1cc(Nc2ncc(Br)c(Nc3ccc(-c4cnc(C)cn4)cc3P(C)(C)=O)n2)c(OC)cc1N1CCC(N2CCN(C)CC2)CC1", "Insulin-like growth factor 1 receptor (Homo sapiens)", "81 nM"),
]

What value of measured IC50 is listed for C=CC(=O)N[C@@H]1CN(c2nc(Nc3cn([C@H]4CCN(C)C4)nc3OC)c3ncc(C)n3n2)C[C@H]1F ? ≥ 100 nM

* * *

// note: IC50 values for UniProt P08069 were reported in different studies

# Molecule, IC50
rows = [
    ("CN1CCC(N2C(=O)c3cc4nc(-c5c(NCC(O)COc6ccccc6)cc[nH]c5=O)[nH]c4cc3C2=O)CC1 (stereo not shown)", "0.5 to 5 µM"),
    ("COc1ccc(OC[C@H](O)CNc2cc[nH]c(=O)c2-c2nc3cc4c(cc3[nH]2)CN(C2CCN(C)CC2)C4=O)c(Cl)c1", "< 0.5 µM"),
    ("CC(=O)Nc1ccc(C(=O)Nc2sc(Nc3ccccc3)nc2C(N)=O)cc1", "> 0.3 µM"),
    ("NC(=O)c1c(-c2ccc3ccc(-c4ccccc4)nc3c2)nn([C@H]2C[C@H](CN3CCNCC3)C2)c1N", "≤ 0.1 µM"),
    ("Cc1ccc(OC[C@H](O)CNc2cc[nH]c(=O)c2-c2nc3cc4c(cc3[nH]2)C(=O)N(C2CCN(CCCO)CC2)C4=O)c(C)c1", "< 0.5 µM"),
    ("Cc1c(Cl)cccc1OC[C@H](O)CNc1cc[nH]c(=O)c1-c1nc2cc3c(cc2[nH]1)C(=O)N(CC(C)(C)CN(C)C)C3=O", "< 0.5 µM"),
]

Okay, now this molecule:
Please report the recorded IC50 for NC(=O)c1c(-c2ccc3ccc(-c4ccccc4)nc3c2)nn([C@H]2C[C@@H](O)C2)c1N . 1 to 20 µM
